# credit: patent US20090076029A1

# system: hMC4-R
# Construct: expressed in transfected cells; host or cells: HEK-293
# Format: binding, human
# experimental-conditions: read-out: Ki (nM) (AgRP) MC4-R
# Procedure: Competitive binding assay using [I^125]-AgRP (83-132). […] Binding was measured at radioligand concentrations of 0.2 nM. […] The dried discs were punched out from the plate and counted on a gamma counter. […] Data were analyzed using the Prism Graph-Pad curve fitting software.
measurement-kind: Ki (nM)
Provide only the numeric value, understood in nM.

Notebook: NH2—(CH2)6—C(═O)-Ser(Bzl)-D-Phe(4-Cl)-Arg-Trp-Asp-Phe-NH2 [Example 15] , Ki read as 0.6

----------
Parameter Ki: see the listing below.
# system: MC1-R
# Construct: other: 1 μM compound
# measurement-protocol: Competitive inhibition assay using [I125]-NDP-α-MSH, MC1-R membranes
# Type: binding, mouse
Provide only the numeric value, understood in nM.

Some substances with known Ki results, for comparison:
# substance, system, Ki [nM]
measured = [
    ("NH2—(CH2)6—C(═O)-Ser(Bzl)-D-Phe(4-Cl)-Arg-Trp-Asp-NH2 [Example 14]", "MC1-R", 760),
    ("NH2—(CH2)6—C(═O)-Ser(Bzl)-D-Phe(4-Cl)-Arg-Trp-Asp-Phe-NH2 [Example 15]", "MC1-R", 242),
]

--- query ---
Notebook: NH2—(CH2)6—C(═O)-Ser(Bzl)-D-Phe(4-Cl)-Arg-Trp-Ala-NH2 [Example 16] , Ki read as 142

----------
# Test system: hMC4-R
# Construct: expressed in transfected cells; host or cells: HEK-293
# measurement-protocol: cAMP functional assay in HEK-293 cells expressing MC4-R (agonist, neutral antagonist/Schild)
# Format: cell-based, human
# experimental-conditions: Schild plot vs NDP-α-MSH
# Procedure: General method for EC50 determination in functional activity assay. […] Cells were incubated with the test compounds in the presence or absence of α-MSH for 1 hour at 37° C. cAMP levels in the cell lysates were measured using an EIA kit (Amersham). Data analysis and EC50 values were determined using nonlinear regression analysis with Prism Graph-Pad software. […] Assay for agonist. […] Data analysis and EC50 values were determined by using nonlinear regression analysis with Prism Graph-Pad software. […]
Parameter pA2 value at MC4-R: see the listing below.
# respond with the number and nothing more

Some molecules with known pA2 value at MC4-R results, for comparison:
# molecule, meas-value
data = [
    ("CC(C)C[C@@H]1CN(C(=O)[C@H](N)Cc2ccc(Cl)cc2Cl)[C@@H](CCCNC(=N)N)CN1CCc1ccc2ccccc2c1 [Example 4]", 7.7),
    ("N=C(N)NCCC[C@H]1C(=O)N2C(CC[C@@H]2COc2ccc3ccccc3c2)N1C(=O)[C@@H](Cc1ccc(Cl)cc1Cl)NC(=O)[C@@H]1Cc2ccccc2CN1 (stereo partly shown) [Example 23]", 8.0),
    ("CC(=O)N[C@H](Cc1ccc2ccccc2c1)C(=O)N1C[C@@H](CC(C)C)N(CCc2ccc3ccccc3c2)C[C@@H]1CCCNC(=N)N [Example 13]", 7.3),
]

--- query ---
Notebook: CC(=O)N[C@H](Cc1ccc(C)cc1C)C(=O)N1C[C@@H](C)N(CCc2ccc3ccccc3c2)C[C@@H]1CCCNC(=N)N [Example 26] , pA2 value at MC4-R read as 8.3

----------
# system: MC1-R
# Construct: other: 1 μM compound
# measurement-protocol: Competitive inhibition assay using [I125]-NDP-α-MSH, MC1-R membranes
# Assay type: binding, mouse
Parameter log10(Ki): see the listing below.
Scale type: logarithmic (base 10). Underlying Ki unit: nM.

Some compounds with known log10(Ki) results, for comparison:
# compound, system, log10(Ki)
measured = [
    ("Cc1cc(Cl)ccc1C[C@@H](N)C(=O)N1C[C@@H](C)N(CCc2c[nH]c3ccccc23)C[C@@H]1CCCNC(=N)N [Example 10]", "MC1-R", 3.24),
    ("N=C(N)NCCC[C@H]1C(=O)N(CCc2c[nH]c3ccccc23)CCN1C(=O)[C@H](N)Cc1ccc(Cl)cc1Cl [Example 2]", "MC1-R", 3.15),
]

Notebook: CC(C)C[C@@H]1CN(C(=O)[C@H](N)Cc2ccc(Cl)cc2Cl)[C@@H](CCCNC(=N)N)CN1CCc1ccc2ccccc2c1 [Example 4] , log10(Ki) read as 3.13

Notebook: Cc1[nH]c2ccccc2c1CCN1C[C@H](CCCNC(=N)N)N(C(=O)[C@H](N)Cc2ccc3ccccc3c2)C[C@H]1C [Example 9] , log10(Ki) read as 2.17

Notebook: N=C(N)NCCC[C@H]1CN(CCc2ccc3ccccc3c2)CCN1C(=O)[C@H](N)Cc1ccc(Cl)cc1Cl [Example 18] , log10(Ki) read as 3.08

Notebook: Cc1ccc(CCN2C[C@H](CCCNC(=N)N)N(C(=O)[C@H](N)Cc3ccc4ccccc4c3)C[C@H]2C)cc1 [Example 5] , log10(Ki) read as 2.13

Notebook: C[C@@H]1CN(C(=O)[C@H](N)Cc2ccc3ccccc3c2)[C@@H](CCCNC(=N)N)CN1C(=O)Cc1c[nH]c2ccccc12 [Example 6] , log10(Ki) read as 2.50

----------
Parameter Ki: see the listing below.
# system: hMC4-R
# Construct: expressed in transfected cells; host or cells: HEK-293
# measurement-protocol: Competitive inhibition assay using [I125]-NDP-α-MSH, hMC4-R membranes
# Assay type: binding, human
# experimental-conditions: MC4-R membranes; Table 1; read-out: Ki (nM) I125-NPD-α-MSH
Provide only the numeric value, understood in nM.

Some compounds with known Ki results, for comparison:
# compound, measurement-kind, meas-value
rows = [
    ("CC(C)C[C@@H]1CN(C(=O)[C@H](N)Cc2ccc(Cl)cc2Cl)[C@@H](CCCNC(=N)N)CN1CCc1ccc2ccccc2c1 [Example 4]", "Ki", 5),
    ("N=C(N)NCCC[C@H]1C(=O)N2C(CC[C@@H]2COc2ccc3ccccc3c2)N1C(=O)[C@@H](Cc1ccc(Cl)cc1Cl)NC(=O)[C@@H]1Cc2ccccc2CN1 (stereo partly shown) [Example 23]", "Ki", 1),
]

Notebook: N=C(N)NCCC[C@H]1CN(C(=O)Cc2ccc3ccccc3c2)[C@H](Cc2ccccc2)CN1C[C@H](N)Cc1ccc2ccccc2c1 [Example 30] , Ki read as 55

Notebook: NCCCC[C@H]1C(=O)N(CCc2ccc3ccccc3c2)CCN1C(=O)[C@@H](Cc1ccc(Cl)cc1Cl)NC(=O)/C=C/c1ccccc1 [Example 21] , Ki read as 6

----------
Parameter Ki: see the listing below.
# system: hMC4-R
# Construct: expressed in transfected cells; host or cells: HEK-293
# Format: binding, human
# experimental-conditions: read-out: Ki (nM) (AgRP) MC4-R
Provide only the numeric value, understood in nM.

Some molecules with known Ki results, for comparison:
# mol-smiles, system, meas-value
records = [
    ("N=C(N)NCCC[C@H]1CN(CCc2ccc3ccccc3c2)CCN1C(=O)[C@H](N)Cc1ccc(Cl)cc1Cl", "hMC4-R", 1),
    ("NCCCC[C@H]1C(=O)N(CCc2ccc3ccccc3c2)CCN1C(=O)[C@@H](Cc1ccc(Cl)cc1Cl)NC(=O)[C@@H]1CC[C@H](c2ccccc2)N1", "hMC4-R", 63),
]

--- query ---
Notebook: CC(C)C[C@@H]1CN(C(=O)[C@H](N)Cc2ccc(Cl)cc2Cl)[C@@H](CCCNC(=N)N)CN1CCc1ccc2ccccc2c1 , Ki read as 6

----------
# system: hMC4-R
# Construct: expressed in transfected cells; host or cells: HEK-293
# measurement-protocol: Competitive inhibition assay using [I125]-NDP-α-MSH, hMC4-R membranes
# Format: binding, human
# experimental-conditions: MC4-R membranes; Table 1; read-out: Ki (nM) I125-NPD-α-MSH
measurement-kind: Ki (nM)
Provide only the numeric value, understood in nM.

Notebook: NH2—(CH2)6—C(═O)-Ser(Bzl)-D-Phe(4-Cl)-Arg-Trp-Asp-Phe-NH2 [Example 15] , Ki read as 5

----------
# system: hMC3-R
# Construct: expressed in transfected cells; host or cells: HEK-293
# measurement-protocol: Competitive inhibition assay using [I125]-NDP-α-MSH, hMC3-R membranes
# Assay type: binding, human
# experimental-conditions: read-out: Ki (nM) (NDP-α-MSH) MC3-R
Parameter Ki: see the listing below.
Provide only the numeric value, understood in nM.

# mol-smiles, system, measurement-kind, meas-value
rows = [
    ("Cc1ccc(C[C@@H](N)C(=O)N2C[C@@H](C)N(CCc3ccc4ccccc4c3)C[C@@H]2CCCNC(=N)N)c(C)c1", "hMC3-R", "Ki", 167),
]

Notebook: Cc1cc(Cl)ccc1C[C@@H](N)C(=O)N1C[C@@H](C)N(CCc2c[nH]c3ccccc23)C[C@@H]1CCCNC(=N)N , Ki read as 177

Notebook: CC(C)C[C@@H]1CN(C(=O)[C@H](N)Cc2ccc(Cl)cc2Cl)[C@@H](CCCNC(=N)N)CN1CCc1ccc2ccccc2c1 , Ki read as 87

Notebook: NCCCC[C@H]1C(=O)N(CCc2ccc3ccccc3c2)CCN1C(=O)[C@@H](Cc1ccc(Cl)cc1Cl)NC(=O)/C=C/c1ccccc1 , Ki read as 648

Notebook: Cc1ccc(CCN2C[C@H](CCCNC(=N)N)N(C(=O)[C@H](N)Cc3ccc4ccccc4c3)C[C@H]2C)cc1 , Ki read as 164

Notebook: CC(=O)N[C@H](Cc1ccc(C)cc1C)C(=O)N1C[C@@H](C)N(CCc2ccc3ccccc3c2)C[C@@H]1CCCNC(=N)N , Ki read as 74
